- assayName: MRT (0 to t) in male ICR (CD-1) mouse at 5 mg/kg, iv by LC-MS/MS analysis
- Assay type: ADME, organism-based
- conditionsUsed: in vivo
readoutLabel: MRT last (h)
Numeric answer only, unit h assumed.

Tell me the measured MRT last of C[C@@H](n1ccc2cc(Cl)ccc2c1=O)[C@](O)(Cn1cnnn1)c1ccc(F)cc1F , please. 3.27

====

- Test system: Pichia kudriavzevii
- assayName: Antifungal activity against Candida krusei 4946 assessed as inhibition of fungal growth incubated for 24 hrs by CLSI protocol based microbroth dilution method
- Format: functional
Would you mind telling me the reported MIC50 of each entry?

Need MIC50, item C[C@@H](n1ccc2cc(OC(F)(F)F)ccc2c1=O)[C@](O)(Cn1cncn1)c1ccc(F)cc1F 0.063 µg/mL

For the compound shown here, C[C@@H](n1ncc2cn(-c3ccccc3)nc2c1=O)[C@](O)(Cn1cncn1)c1ccc(F)cc1F , give the reported MIC50. > 64 µg/mL

Name the reported MIC50 value associated with the compound C[C@@H](n1cnc2cc(OC(F)(F)F)ccc2c1=O)[C@](O)(Cn1cnnn1)c1ccc(F)cc1F > 4 µg/mL

Record request: MIC50 value, item C[C@@H](n1ncc2cn(-c3ccc(Cl)c(Cl)c3)nc2c1=O)[C@](O)(Cn1cncn1)c1ccc(F)cc1F > 64 µg/mL

Which value of MIC50 has been reported for C[C@@H](n1ncc2ccccc2c1=O)[C@](O)(Cn1cncn1)c1ccc(F)cc1F in the records? 1 µg/mL

I am curious: what MIC50 value has been reported for C[C@@H](n1ccc2cc(Br)ccc2c1=O)[C@](O)(Cn1cncn1)c1ccc(F)cc1F ? 0.063 µg/mL

Could you tell me which MIC50 is on file for C[C@@H](n1cnc2cc(Cl)ccc2c1=O)[C@](O)(Cn1cncn1)c1ccc(F)cc1F [ALBACONAZOLE] ? 0.125 µg/mL

Give its MIC50 value. Item: C[C@@H](n1ncc2cn(-c3ccc(F)c(F)c3)nc2c1=O)[C@](O)(Cn1cncn1)c1ccc(F)cc1F > 64 µg/mL

Could you tell me which MIC50 is on file for OC(Cn1cncn1)(Cn1cncn1)c1ccc(F)cc1F [FLUCONAZOLE] ? 8 µg/mL

# input compound: COc1ccc2c(=O)n([C@H](C)[C@](O)(Cn3cncn3)c3ccc(F)cc3F)ccc2c1 ; wanted: its MIC50 0.125 µg/mL

Dear colleague, I am looking for the recorded MIC50 of the following compound: C[C@@H](n1ccc2cc(F)ccc2c1=O)[C@](O)(Cn1cnnn1)c1ccc(F)cc1F 1 µg/mL

MIC50 lookup needed for C[C@@H](n1cnc2cc(Cl)ccc2c1=O)[C@](O)(Cn1cnnn1)c1ccc(F)cc1F , thanks. 0.25 µg/mL

Query (compound): C[C@@H](n1ccc2cc(Cl)ccc2c1=O)[C@](O)(Cn1cncn1)c1cc(F)ccc1F ; field requested: MIC50 0.063 µg/mL

Fill in the blank: the reported MIC50 of C[C@@H](n1ccc2cc(Cl)ccc2c1=O)[C@](O)(Cn1cnnn1)c1ccc(F)cc1F is ____. 0.031 µg/mL

Would you kindly share the measured MIC50 for C[C@@H](n1ncc2cc(Cl)ccc2c1=O)[C@](O)(Cn1cncn1)c1cc(F)ccc1F ? 0.125 µg/mL

# query: MIC50 of entry CC[C@@H]([C@H](C)O)n1ncn(-c2ccc(N3CCN(c4ccc(OC[C@@H]5CO[C@@](Cn6cncn6)(c6ccc(F)cc6F)C5)cc4)CC3)cc2)c1=O [POSACONAZOLE] 0.5 µg/mL

I am curious: what MIC50 value has been reported for C[C@@H](c1ncncc1F)[C@](O)(Cn1cncn1)c1ccc(F)cc1F [VORICONAZOLE] ? 0.063 µg/mL
